Data origin, for the record: BindingDB's records for patent US10227314

experimental_target: Cystathionine gamma-lyase (Homo sapiens, UniProt P32929)
Sequence (P32929 whole entry): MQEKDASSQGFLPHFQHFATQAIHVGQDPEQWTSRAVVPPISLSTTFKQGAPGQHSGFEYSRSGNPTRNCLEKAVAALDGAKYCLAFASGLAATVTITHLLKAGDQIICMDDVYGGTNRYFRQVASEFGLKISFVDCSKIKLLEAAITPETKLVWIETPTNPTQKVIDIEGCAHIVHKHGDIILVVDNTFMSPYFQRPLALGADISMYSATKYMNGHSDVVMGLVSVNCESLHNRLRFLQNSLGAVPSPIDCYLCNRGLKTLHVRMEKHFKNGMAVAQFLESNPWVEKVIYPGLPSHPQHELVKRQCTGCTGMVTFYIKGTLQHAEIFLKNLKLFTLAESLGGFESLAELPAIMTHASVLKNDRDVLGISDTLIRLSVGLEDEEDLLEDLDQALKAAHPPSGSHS
pIC50: −log10 of the molar value.
quantity_kind: pIC50

For the compound N#CCC(N)c1nnn[nH]1 (stereo unspecified) [US10227314, Example 1] , what pIC50 is on record?
< 4.00
